Values compiled from patent US7067503B2.

Measured melting point, listed per entry for reference.

# compound, melting point
records = [
    ("COc1cc2c(cc1O)CCC1C2CC[C@@]2(C)C1CC[C@@]2(O)Cc1ccccc1 (stereo partly shown)", "209 to 213 °C"),
    ("COc1cc2c(cc1O)CCC1C2CC[C@@]2(C)C1CC[C@@]2(O)Cc1cccc(Br)c1 (stereo partly shown)", "173 to 177 °C"),
    ("COc1cc2c(cc1O)CCC1C2CC[C@@]2(C)C1CC[C@@]2(O)Cc1ccc(C(C)(C)C)cc1 (stereo partly shown)", "223 to 225 °C"),
    ("C[C@]12CCC3c4ccc(O)cc4CCC3C1CC[C@@]2(O)Cc1ccccn1 (stereo partly shown)", "250 to 255 °C"),
]

----------
Biological target: STS (Homo sapiens)
Sequence (P08842 22-583): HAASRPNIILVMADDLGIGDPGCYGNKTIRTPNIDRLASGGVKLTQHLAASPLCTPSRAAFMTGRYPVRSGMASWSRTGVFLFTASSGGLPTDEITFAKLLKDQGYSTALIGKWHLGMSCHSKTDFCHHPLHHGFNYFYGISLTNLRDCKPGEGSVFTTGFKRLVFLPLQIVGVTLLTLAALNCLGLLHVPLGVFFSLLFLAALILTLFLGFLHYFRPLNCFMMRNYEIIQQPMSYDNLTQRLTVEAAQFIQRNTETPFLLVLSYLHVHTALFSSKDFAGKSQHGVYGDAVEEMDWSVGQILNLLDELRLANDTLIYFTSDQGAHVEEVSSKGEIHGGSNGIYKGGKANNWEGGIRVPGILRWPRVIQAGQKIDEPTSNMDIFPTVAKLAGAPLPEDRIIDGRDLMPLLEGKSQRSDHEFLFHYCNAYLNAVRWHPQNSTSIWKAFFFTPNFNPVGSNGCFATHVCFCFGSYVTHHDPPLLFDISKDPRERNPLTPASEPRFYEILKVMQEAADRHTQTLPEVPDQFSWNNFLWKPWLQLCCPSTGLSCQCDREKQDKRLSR
Experiment: Plate assay, % inhibition
Conditions: read-out: Plate assay % inhibition

# compound, inhibition at 10 µM
records = [
    ("COc1cc2c(cc1OS(N)(=O)=O)CCC1C2CCC2(C)C(OS(N)(=O)=O)CCC12 (stereo not drawn) [OSO2NH2, OMe, C-β-OSO2NH2, α-H]", "32%"),
    ("CC12CCC3c4ccc(OS(N)(=O)=O)cc4CCC3C1CCC2OS(N)(=O)=O (stereo not shown) [BLE99031B]", "32%"),
    ("CC1=C2CCC3c4ccc(OS(N)(=O)=O)cc4CCC3C2CC1 (stereo not shown) [BLE00086]", "14%"),
    ("COc1cc2c(cc1OS(N)(=O)=O)CC[C@@H]1[C@@H]2CC[C@@]2(C)[C@H]1CC[C@@]2(O)Cc1ccc(C(C)(C)C)cc1 [BLE01016]", "-3%"),
]

----------
biological target: steroid sulphatase (Homo sapiens); construct: Sulphatase-positive human placenta from normal term pregnancies are thoroughly minced with scissors; from tissue; host or cells: human term placenta (2000 g supernatant / microsomes); assay: Inhibition of steroid sulphatase activity in placental microsomes (Protocol 2); type: biochemical
pIC50: −log10 of the molar value.
Measured pIC50, listed per entry for reference.
property_name: pIC50

# compound, test_result
rows = [
    ("CC12CCC3c4ccc(OS(N)(=O)=O)cc4CCC3C1CCC2=O (stereo not shown) [EMATE, oestrone-3-sulphamate, reference compound]", 7.74),
    ("COc1cc2c(cc1OS(N)(=O)=O)CC[C@@H]1[C@@H]2CC[C@@]2(C)[C@H]1CC[C@@]2(O)Cc1ccccc1", 6.37),
    ("CC12CCC3c4ccc(OS(N)(=O)=O)cc4CCC3C1CCC2OS(N)(=O)=O (stereo not shown) [BLE99031B]", 7.70),
    ("COc1cc2c(cc1OS(N)(=O)=O)CC[C@@H]1[C@@H]2CC[C@@]2(C)[C@H]1CC[C@@]2(O)Cc1ccc(C(C)(C)C)cc1", 5.37),
]
